Values from patent US20210253718A1

Target: T1, FZD3 cysteine-rich domain (CRD), MYC-tagged and GPI-anchored on CHO cells (human, UniProt Q9NPG1 24-150, GPI anchor)
T1 construct: domain: cysteine-rich domain (CRD); also called FZD3 CRD; CHO-myc-FZDGPI; not shown: MYC tag and GPI anchor signal
T1 sequence (looked up): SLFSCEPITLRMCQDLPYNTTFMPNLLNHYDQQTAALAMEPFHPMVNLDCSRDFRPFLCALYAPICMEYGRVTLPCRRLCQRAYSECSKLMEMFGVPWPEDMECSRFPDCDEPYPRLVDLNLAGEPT
Assay: flow cytometry, CHO-CRD cells;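 note: flow cytometry of Fab binding to CHO cells overexpressing a Frizzled CRD, with binding defined as median fluorescence over twice that of CHO cells lacking any Frizzled CRD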
median fluorescence values by entry
Write the number on its own, no unit after it.

Worked cases, median fluorescence given:
Fab-2910 (Fab, V domains shown, Fab) VH: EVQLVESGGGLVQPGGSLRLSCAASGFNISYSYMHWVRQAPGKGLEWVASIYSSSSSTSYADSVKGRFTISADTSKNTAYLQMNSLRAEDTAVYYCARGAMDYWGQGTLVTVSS VL: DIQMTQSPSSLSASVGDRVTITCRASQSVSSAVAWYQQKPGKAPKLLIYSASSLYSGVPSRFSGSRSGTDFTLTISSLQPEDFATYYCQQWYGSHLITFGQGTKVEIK : 3.28
Fab-2916 (Fab, V domains shown, Fab) VH: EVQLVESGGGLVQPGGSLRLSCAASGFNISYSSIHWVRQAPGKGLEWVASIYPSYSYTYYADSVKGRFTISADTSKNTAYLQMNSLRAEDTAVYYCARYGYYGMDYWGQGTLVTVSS VL: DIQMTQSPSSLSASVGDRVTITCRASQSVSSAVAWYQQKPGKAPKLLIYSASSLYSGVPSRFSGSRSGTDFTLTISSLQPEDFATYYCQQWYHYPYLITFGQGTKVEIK : 4.53

Next binder, please.
So, Fab-2914 (Fab, V domains shown, Fab; also called Fv-2914) VH: EVQLVESGGGLVQPGGSLRLSCAASGFNIYYSYMHWVRQAPGKGLEWVASIYPSSSSTSYADSVKGRFTISADTSKNTAYLQMNSLRAEDTAVYYCARGAMDYWGQGTLVTVSS VL: DIQMTQSPSSLSASVGDRVTITCRASQSVSSAVAWYQQKPGKAPKLLIYSASSLYSGVPSRFSGSRSGTDFTLTISSLQPEDFATYYCQQWYYGSLITFGQGTKVEIK ? Its median fluorescence was 4.61
